Cited source: ChEMBL document CHEMBL1148743

biological target: Cannabinoid receptor 2 (Mus musculus, UniProt P47936); test: Displacement of [3H]CP-55940 from CB2 receptor in mouse spleen membrane; format: cell membranes
Sequence (P47936 whole entry): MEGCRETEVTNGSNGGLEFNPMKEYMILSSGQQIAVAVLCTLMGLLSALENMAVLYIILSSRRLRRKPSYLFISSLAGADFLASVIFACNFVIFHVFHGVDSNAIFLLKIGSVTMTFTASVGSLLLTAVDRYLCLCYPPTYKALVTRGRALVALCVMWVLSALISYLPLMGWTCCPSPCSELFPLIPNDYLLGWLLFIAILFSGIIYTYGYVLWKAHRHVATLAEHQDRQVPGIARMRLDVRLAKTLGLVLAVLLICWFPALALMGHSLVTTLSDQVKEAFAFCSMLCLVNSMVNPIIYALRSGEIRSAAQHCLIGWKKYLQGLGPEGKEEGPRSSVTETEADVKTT
Outcome Measure: pKi
To interpret pKi, take it as minus log10 of a concentration measured in moles per litre.

Worked examples follow.
INSERT INTO results (substance_smiles, endpoint_value) VALUES
  ('CCCC/C=C\C1(c2cc(O)c3c(c2)OC(C)(C)[C@@H]2CC=C(C)C[C@@H]32)CCCCC1', 8.31),
  ('CCCCCCC1(c2cc(O)c3c(c2)OC(C)(C)[C@@H]2CC=C(C)C[C@@H]32)CCC1', 7.94);

// moving on: another record for pKi
Name the value of pKi reported for CCCC/C=C\C1(c2cc(O)c3c(c2)OC(C)(C)[C@@H]2CC=C(C)C[C@@H]32)CC1 when tested on Cannabinoid receptor 2 (Mus musculus, UniProt P47936).
8.77
